System: human PBMCs
ASSAY DETAILS: Human PBMC cytokine response assay (IFN-γ and IFN-α in cell-free medium by ELISA), with or without cPLGA
Assay type: cell-based
SETTINGS: donor 28188; Table 15
// reported IFN-g per item
Entry rule: numbers only, all in pg/mL.

# SUBSTANCE, UNIT SYMBOL, IFN-g
rows = [
    ("5′-TCGTCGA-3′-HEG-5′-ACGTTCG-3′-HEG-5′-AGATGAT-3′ [Compound C-8]", "pg/mL", 9),
    ("Starburst Dendrimer ® -(5′-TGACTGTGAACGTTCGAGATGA-3′)x (X range = 3-16) (SEQ ID NO: 2) (See Ex. 24) [Compound C-102]", "pg/mL", 6),
    ("5′-TCGTCGA-3′- C3-5′-ACGTTCG-3′-C3-5′-AGATGAT-3′ [Compound C-9]", "pg/mL", 11),
]

Now, please, on to the next substance.
What value of IFN-g has been recorded for this entry: 5′-TCGTCGA-3′-HEG-5′-TCGTCGA-3′-HEG-5′-TCGTCGA-3′ [Compound C-21]
7

---

Tested on: CD19+ B cells
ASSAY DETAILS: Human B cell proliferation assay (3H-thymidine incorporation)
SETTINGS: B cells; Donor 147; 2 μg/ml; Experiment A
// reported cpm1 per item
Entry rule: numbers only, all in cpm.

Sample records with cpm1:
# SUBSTANCE, ASSAYED SYSTEM, OUTCOME MEASURE, VAL
measured = [
    ("5′-TGCTGC-3′-HEG-5′-AGCTTGC-3′-HEG-5′-AGATGAT-3′ [Compound M-1, reference compound]", "CD19+ B cells", "cpm1", 1679),
    ("(5′-TCGTCGA-3′)2-glycerol-5′-TCGTCGA-3′ [Compound C-28]", "CD19+ B cells", "cpm1", 65593),
]

Now, please, on to the next substance.
What value of cpm1 has been recorded for this entry: 5′-TCGTCGA-3′-HEG-5′-ACGTTCG-3′-HEG-5′-AGATGAT-3′ [Compound C-8]
20914

---

Tested on: human PBMCs
ASSAY DETAILS: Human PBMC cytokine response assay (IFN-γ and IFN-α in cell-free medium by ELISA), with or without cPLGA
Assay type: cell-based
SETTINGS: Table 11; donor 28044
Strand notation (5' to 3'): a small letter for the sugar, then the base; units joined by * are phosphorothioate-linked, units joined directly phosphodiester-linked; [ ] holds rarer units or linkages, { } end groups; capitals alone tell only the bases. d = 2'-deoxy (DNA)
Response field class: enum, chosen by comparing IFN-α against low bin: < 10 pg/mL; mid bin: ≥ 10 pg/mL and < 80 pg/mL; high bin: ≥ 80 pg/mL

Before answering, review these 3 worked examples.
# SUBSTANCE, DISCRETE LABEL
data = [
    ("5′-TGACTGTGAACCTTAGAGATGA-3′ (SEQ ID NO: 3) (dT*dG*dA*dC*dT*dG*dT*dG*dA*dA*dC*dC*dT*dT*dA*dG*dA*dG*dA*dT*dG*dA) [Compound P-7, negative control, reference compound]", "low bin"),
    ("5′-TCGTCGA-3′-HEG-5′-ACGTTCG-3′-HEG-5′-GGGGGG-3′ [Compound C-49]", "high bin"),
    ("(5′-TCGTCGA-3′-HEG)2-glycerol-HEG-5′-TCGTCGA-3′ [Compound C-94]", "high bin"),
]

Record 5′-TCGTCGA-3′-HEG-5′-TCGTCGA-3′-HEG-5′-TCGTCGA-3′ [Compound C-21] — which class?
high bin

---

Tested on: human PBMCs
ASSAY DETAILS: Human PBMC cytokine response assay (IFN-γ and IFN-α in cell-free medium by ELISA), with or without cPLGA
Type: cell-based
SETTINGS: Table 9; donor 28098
OUTCOME MEASURE: IFN-γ
Number first, unit second.

Sample records with IFN-γ:
# SUBSTANCE, IFN-γ
rows = [
    ("5′-TCGTCGA-3′-C3-5′-TCGTCGA-3′-C3-5′-TCGTCGA-3′ all phosphorothioate linkages [Compound C-33]", "0 pg/mL"),
    ("5′-TCGTCG-3′-HEG-5′-ACGTTCG-3′-HEG-5′-AGATGAT-3′-TEG [Compound C-29]", "150 pg/mL"),
    ("5′-TCGTCG-3′-HEG-5′-ACGTTCG-3′-HEG-5′-AGATGAT-3′ [Compound C-10]", "174 pg/mL"),
    ("(5′-TCGTCGA-3′)2-glycerol-5′-TCGTCGA-3′ [Compound C-28]", "183 pg/mL"),
    ("5′-TCGTCG-3′-HEG-5′-TCGTCG-3′-HEG-5′-TCGTCG-3′ [Compound C-22]", "110 pg/mL"),
    ("5′-TCGTCGA-3′-HEG-5′-ACGTTCG-3′-HEG-5′-AGATGAT-3′ [Compound C-8]", "205 pg/mL"),
]

What value of IFN-γ has been recorded for this entry: (5′-TCGTCGA-3′-HEG)2-glycerol-HEG-5′-TCGTCGA-3′ (phosphodiester) [Compound C-93]
0 pg/mL

---

System: human PBMCs
ASSAY DETAILS: Human PBMC cytokine response assay (IFN-γ and IFN-α in cell-free medium by ELISA), with or without cPLGA
Format: cell-based
SETTINGS: Donor 4; 20 μg/ml, 24 h
Strand notation (5' to 3'): a small letter for the sugar, then the base; units joined by * are phosphorothioate-linked, units joined directly phosphodiester-linked; [ ] holds rarer units or linkages, { } end groups; capitals alone tell only the bases. d = 2'-deoxy (DNA)
OUTCOME MEASURE: IFN-γ (pg/ml) Donor 4

# SUBSTANCE, IFN-γ (pg/ml) Donor 4
rows = [
    ("5′-TCGTCGA-3′ [Compound P-1, reference compound]", "4 pg/mL"),
]

What value of IFN-γ (pg/ml) Donor 4 has been recorded for this entry: 5′-ATCTCGA-3′ [Compound P-5, reference compound]
3 pg/mL

What value of IFN-γ (pg/ml) Donor 4 has been recorded for this entry: 5′-TCGTCG-3′ [Compound P-2, reference compound]
4 pg/mL

What value of IFN-γ (pg/ml) Donor 4 has been recorded for this entry: 5′-ACGTTCG-3′ [Compound P-3, reference compound]
3 pg/mL

What value of IFN-γ (pg/ml) Donor 4 has been recorded for this entry: 5′-AGATGAT-3′ [Compound P-4, reference compound]
3 pg/mL

What value of IFN-γ (pg/ml) Donor 4 has been recorded for this entry: 5′-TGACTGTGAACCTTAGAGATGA-3′ (SEQ ID NO: 3) (dT*dG*dA*dC*dT*dG*dT*dG*dA*dA*dC*dC*dT*dT*dA*dG*dA*dG*dA*dT*dG*dA) [Compound P-7, negative control, reference compound]
8 pg/mL

---

Tested on: human PBMCs
ASSAY DETAILS: Human PBMC cytokine response assay (IFN-γ and IFN-α in cell-free medium by ELISA), with or without cPLGA
Format: cell-based
SETTINGS: Donor 1; 20 μg/ml, 24 h
Strand notation (5' to 3'): a small letter for the sugar, then the base; units joined by * are phosphorothioate-linked, units joined directly phosphodiester-linked; [ ] holds rarer units or linkages, { } end groups; capitals alone tell only the bases. d = 2'-deoxy (DNA)
// reported IFN-γ (pg/ml) Donor 1 per item
Entry rule: numbers only, all in pg/mL.

Sample records with IFN-γ (pg/ml) Donor 1:
# SUBSTANCE, IFN-γ (pg/ml) Donor 1, pg/mL
records = [
    ("5′-TCGTCGA-3′- C3-5′-ACGTTCG-3′-C3-5′-AGATGAT-3′ [Compound C-9]", 2157),
    ("5′-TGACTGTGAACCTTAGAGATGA-3′ (SEQ ID NO: 3) (dT*dG*dA*dC*dT*dG*dT*dG*dA*dA*dC*dC*dT*dT*dA*dG*dA*dG*dA*dT*dG*dA) [Compound P-7, negative control, reference compound]", 410),
    ("5′-TCGTCG-3′- C3-5′-ACGTTCG-3′-C3-5′-AGATGAT-3′ [Compound C-11]", 2308),
    ("5′-TCGTCG-3′-HEG-5′-ACGTTCG-3′-HEG-5′-AGATGAT-3′ [Compound C-10]", 1595),
    ("5′-TCGTCGA-3′-HEG-5′-ACGTTCG-3′-HEG-5′-AGATGAT-3′ [Compound C-8]", 1916),
]

Now, please, on to the next substance.
What value of IFN-γ (pg/ml) Donor 1 has been recorded for this entry: 5′-TCGTCGA-3′ [Compound P-1, reference compound]
8

---

Tested on: human PBMCs
ASSAY DETAILS: Human PBMC cytokine response assay (IFN-γ and IFN-α in cell-free medium by ELISA), with or without cPLGA
Type: cell-based
SETTINGS: Table 24; donor 28236
// reported IFN-γ per item
Entry rule: numbers only, all in pg/mL.

# SUBSTANCE, VAL
measured = [
    ("(5′-TCGTCGA-3′-HEG)2-glycerol-HEG-5′-TCGTCGA-3′ [Compound C-94]", 239),
    ("(5′-TCGTCGA-3′-TEG)2-glycerol-TEG-5′-TCGTCGA-3′ [Compound C-103]", 250),
    ("5′-TCCA-3′-C3-5′-TGACGTT-3′-C3-5′-CCTGATGCT-3′ [Compound C-88]", 17),
]

Now, please, on to the next substance.
What value of IFN-γ has been recorded for this entry: 5′-TCGTCGA-3′-C3-5′-TCGTCGA-3′-C3-5′-TCGTCGA-3′ [Compound C-90]
497
